# Lookup of reported % inhibition at 100 µM keyed by entry
# Test Target: Urokinase from human urine (human, UniProt P00749 21-431, limits assumed)
# Assay Explanation: cell-based or functional assay
Bridges are numbered along the chain shown (N, C = ends). [ ]: non-standard residue; d: D form. Nle = CCCC[C@H](N)C(=O)O

Take a look at these entries with their results.
ICTKSDPPXCR (HELM PEPTIDE1{I.C.T.K.S.D.P.P.[Nle].C.R.[dP].P}$PEPTIDE1,PEPTIDE1,2:R3-10:R3|PEPTIDE1,PEPTIDE1,1:R1-13:R2$$$V2.0; SMILES CCCC[C@@H]1NC(=O)[C@@H]2CCCN2C(=O)[C@@H]2CCCN2C(=O)[C@H](CC(=O)O)NC(=O)[C@H](CO)NC(=O)[C@H](CCCCN)NC(=O)[C@H]([C@@H](C)O)NC(=O)[C@@H]2CSSC[C@H](NC1=O)C(=O)N[C@@H](CCCNC(=N)N)C(=O)N1CCC[C@@H]1C(=O)N1CCC[C@H]1C(=O)N[C@@H]([C@@H](C)CC)C(=O)N2) [Example 57] : 4%
XCTKSDPPICN (HELM PEPTIDE1{[O=C([C@@H](N[*:1])C1CCCCC1)[*:2]].C.T.K.S.D.P.P.I.C.N.[dP].P}$PEPTIDE1,PEPTIDE1,2:R3-10:R3|PEPTIDE1,PEPTIDE1,1:R1-13:R2$$$V2.0; SMILES CC[C@H](C)[C@@H]1NC(=O)[C@@H]2CCCN2C(=O)[C@@H]2CCCN2C(=O)[C@H](CC(=O)O)NC(=O)[C@H](CO)NC(=O)[C@H](CCCCN)NC(=O)[C@H]([C@@H](C)O)NC(=O)[C@@H]2CSSC[C@H](NC1=O)C(=O)N[C@@H](CC(N)=O)C(=O)N1CCC[C@@H]1C(=O)N1CCC[C@H]1C(=O)N[C@@H](C1CCCCC1)C(=O)N2) [Example 37] : 5%

Let us examine a further case.
Give its % inhibition at 100 µM value. Item: cyclo([Nle]CTKSDPPICT[dP]P) (disulfide 2-10) [Example 42]
7%
